Tested target: human ACC2 (Homo sapiens (Human), UniProt O00763)
Sequence (O00763 129-2458): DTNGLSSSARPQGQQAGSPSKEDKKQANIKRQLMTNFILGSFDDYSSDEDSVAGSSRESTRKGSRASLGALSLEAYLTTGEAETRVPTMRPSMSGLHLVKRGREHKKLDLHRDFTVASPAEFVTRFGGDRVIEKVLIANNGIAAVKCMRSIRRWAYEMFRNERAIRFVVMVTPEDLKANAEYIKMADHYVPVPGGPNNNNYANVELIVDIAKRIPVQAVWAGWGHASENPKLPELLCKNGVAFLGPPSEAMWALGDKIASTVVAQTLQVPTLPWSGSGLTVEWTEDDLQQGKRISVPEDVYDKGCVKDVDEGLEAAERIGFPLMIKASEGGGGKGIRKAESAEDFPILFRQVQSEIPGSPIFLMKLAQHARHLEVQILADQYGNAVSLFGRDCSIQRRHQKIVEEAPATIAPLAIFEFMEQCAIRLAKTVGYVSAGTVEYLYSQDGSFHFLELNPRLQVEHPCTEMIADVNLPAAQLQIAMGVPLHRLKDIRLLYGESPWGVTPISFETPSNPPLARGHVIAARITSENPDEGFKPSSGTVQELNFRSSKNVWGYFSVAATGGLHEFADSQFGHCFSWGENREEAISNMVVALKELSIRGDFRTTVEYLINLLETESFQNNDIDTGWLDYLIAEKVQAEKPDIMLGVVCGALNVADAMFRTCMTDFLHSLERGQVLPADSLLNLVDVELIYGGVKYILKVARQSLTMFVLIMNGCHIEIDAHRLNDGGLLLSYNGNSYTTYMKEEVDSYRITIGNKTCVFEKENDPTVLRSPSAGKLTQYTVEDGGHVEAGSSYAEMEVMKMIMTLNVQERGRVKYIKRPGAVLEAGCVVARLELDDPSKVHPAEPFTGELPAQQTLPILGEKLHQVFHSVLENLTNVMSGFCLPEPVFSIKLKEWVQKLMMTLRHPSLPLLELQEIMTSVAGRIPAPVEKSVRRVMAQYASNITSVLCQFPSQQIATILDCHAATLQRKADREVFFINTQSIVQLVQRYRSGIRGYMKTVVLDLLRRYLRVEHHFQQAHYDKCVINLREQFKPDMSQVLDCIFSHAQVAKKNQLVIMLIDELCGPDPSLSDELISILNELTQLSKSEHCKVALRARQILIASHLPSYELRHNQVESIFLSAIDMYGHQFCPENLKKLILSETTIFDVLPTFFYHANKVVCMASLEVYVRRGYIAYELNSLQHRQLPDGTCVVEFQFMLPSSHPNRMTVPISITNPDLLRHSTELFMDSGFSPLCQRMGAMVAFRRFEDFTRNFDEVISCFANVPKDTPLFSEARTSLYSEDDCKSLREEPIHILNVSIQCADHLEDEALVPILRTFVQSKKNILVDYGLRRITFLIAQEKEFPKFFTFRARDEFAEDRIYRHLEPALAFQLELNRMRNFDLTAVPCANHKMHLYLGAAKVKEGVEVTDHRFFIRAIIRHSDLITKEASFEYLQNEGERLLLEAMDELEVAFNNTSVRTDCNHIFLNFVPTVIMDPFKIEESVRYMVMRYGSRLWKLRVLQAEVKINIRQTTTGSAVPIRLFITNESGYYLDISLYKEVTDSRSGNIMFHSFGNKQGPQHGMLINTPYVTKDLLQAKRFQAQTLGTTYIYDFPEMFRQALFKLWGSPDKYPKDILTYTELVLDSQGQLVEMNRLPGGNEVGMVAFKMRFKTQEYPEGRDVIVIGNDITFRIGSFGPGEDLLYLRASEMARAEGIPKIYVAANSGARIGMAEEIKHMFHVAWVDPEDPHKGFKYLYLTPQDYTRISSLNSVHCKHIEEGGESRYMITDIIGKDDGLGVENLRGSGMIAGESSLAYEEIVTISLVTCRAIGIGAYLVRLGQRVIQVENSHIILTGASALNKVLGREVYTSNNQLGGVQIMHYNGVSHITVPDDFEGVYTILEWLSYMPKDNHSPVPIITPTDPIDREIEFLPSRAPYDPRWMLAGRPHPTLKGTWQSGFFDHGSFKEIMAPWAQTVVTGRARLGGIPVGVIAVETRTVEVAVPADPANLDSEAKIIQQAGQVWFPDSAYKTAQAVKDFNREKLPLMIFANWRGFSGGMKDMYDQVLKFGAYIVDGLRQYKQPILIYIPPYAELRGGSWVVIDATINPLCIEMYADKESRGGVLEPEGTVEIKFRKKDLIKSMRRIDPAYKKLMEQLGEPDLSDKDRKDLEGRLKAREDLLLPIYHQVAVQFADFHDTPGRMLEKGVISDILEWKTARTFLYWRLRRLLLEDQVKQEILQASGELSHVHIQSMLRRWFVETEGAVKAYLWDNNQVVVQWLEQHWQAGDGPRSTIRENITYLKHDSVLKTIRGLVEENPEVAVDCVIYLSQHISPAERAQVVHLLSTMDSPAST
Measurement kind: IC50 (nM)

C[C@H](NC(=O)C1CC1)c1ccc(CN2CCc3cc(OCC4CCC4)ccc3C2)cc1 [Example 2.017]
38
COc1c(OCC2CC2)ccc2c1CCN(Cc1ccc([C@H](C)NC(C)=O)cc1)C2C (stereo partly shown) [Example 1.086]
227
CC(=O)NC(C)c1ccc(CN2CCc3cc(OCCCF)ccc3C2)cc1 (stereo not shown) [Example 1.013]
146
C[C@H](NC(=O)CO)c1ccc(CN2CCc3cc(OC[C@@H]4CC4(F)F)ccc3C2)cc1 [Example 2.025]
89
CC(=O)N[C@@H](C)c1ccc(CN2CCc3cc(OCC4CC4)ccc3C2)cc1 [Example 1.088]
12
COc1c(OCCC(F)(F)F)ccc2c1CCN(Cc1ccc([C@H](C)NC(=O)C3CC3)cc1)C2 [Example 1.054]
269
CC(=O)Nc1nc(C)c(C(=O)N[C@@H](C)c2ccc(CN3Cc4ccc(OCC5CC5)cc4C(O)C3)cc2)s1 (stereo partly shown) [Example 3.045]
231
CC(=O)Nc1nc(C)c(C(=O)N[C@@H](C)c2ccc(CN3CCc4c(cccc4OC4CCC4)C3)cc2)s1 [Example 2.012]
97
CC(=O)NC(C)c1ccc(CN2CCc3c(ccc4c3OCCO4)C2)cc1 (stereo not shown) [Example 1.029]
228
CC(=O)NC(C)c1ccc(CN2CCc3c(ccc(OCC4CCC4)c3Cl)C2)cc1 (stereo not shown) [Example 1.033]
44
COc1cccc2c1CCN(Cc1ccc([C@H](C)NC(=O)c3sc(NC(C)=O)nc3C)cc1)C2 [Example 2.003]
157
C[C@H](NC(=O)CC(=O)N(C)C)c1ccc(CN2CCc3cc(OC[C@@H]4CC4(F)F)ccc3C2)cc1 [Example 2.031]
447
C[C@H](NC(=O)C1CCC(=O)N1)c1ccc(CN2Cc3ccc(OCC4CC4)cc3C(F)C2)cc1 (stereo partly shown) [Example 3.035]
143
COc1c(OCC2CCC2)ccc2c1CCN(Cc1ccc([C@H](C)NC(=O)C3CC3)cc1)C2 [Example 1.055]
41
C[C@H](NC(=O)C1CC1)c1ccc(CN2CCc3c(ccc(OCC4CC4)c3Cl)C2)cc1 [Example 1.050]
120
CC(=O)N[C@@H](C)c1ccc(CN2CCc3cc(Cl)ccc3C2)cc1 [Example 1.081]
232

Measured values drawn from patent US9340510B2 for this set.
